B1: Pistol ribozyme (parent)
chain: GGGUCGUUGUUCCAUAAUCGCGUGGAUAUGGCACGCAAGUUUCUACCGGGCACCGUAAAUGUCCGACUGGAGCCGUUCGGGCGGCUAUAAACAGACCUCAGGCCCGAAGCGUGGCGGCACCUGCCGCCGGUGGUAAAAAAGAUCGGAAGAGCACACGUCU

# Variants of: B1
# METHOD DESCRIPTION: aptazyme ON/OFF ratio, guanine; higher = stronger switching; co-transcriptional cleavage with and without guanine
Please go through the items and note down their aptazyme ON/OFF ratio.
Answers are plain numbers.

Need aptazyme ON/OFF ratio for each of these variants.
1. U7G U8A G9A U10G U11G C12A C13A
2. U7C U8C G9A U10G U11C
3. U7A U8C U10C U11A C12U C13U
4. U7C U8A U10G C12A C13U
5. U7A U8G G9A U10G U11C C12G C13U
6. U7A U8C G9U U10C U11C C12A C13G
7. U7C U8G U10G C12G

RESULT:
[1.06, 1.22, 1.27, 1.27, 1.22, 1.18, 1.36]

Please state aptazyme ON/OFF ratio for every variant in the list that follows.
1. U7G U8G G9A U10A U11G C12U C13A
2. U7C U8C U10C U11G C13U
3. U7C U8A G9C U11A C12A C13G
4. U7A U8G G9A U10C U11C C13G

RESULT:
[1.13, 1.34, 1.08, 1.03]
